Lab note: log10 of Ki readings collected with Human immunodeficiency virus type 1 protease (Human immunodeficiency virus 1) for the following compounds.
Peptide text beside a SMILES is read from it.
In plain terms, each number is the log10 of measured Ki in nM.

# log10 of Ki of COC(=O)[C@@H](NC(=O)[C@@H](NC(=O)CCP(=O)(O)[C@@H](Cc1ccccc1)NC(=O)[C@H](C)NC(=O)[C@H](C)NC(=O)[C@@H](N)CO)C(C)C)C(C)C (HELM PEPTIDE1{S.A.A.[O=C(CCP(=O)(O)[C@@H](Cc1ccccc1)N[*:1])[*:2]].V.V.[CO[*:1]]}$$$$V2.0) = 3.64

Sure, the documented log10 of Ki for CC(C)[C@H](NC(=O)[C@@H](NC(=O)C1CCCN1CP(=O)(O)[C@@H](Cc1ccccc1)NC(=O)c1ccccc1)C(C)C)C(N)=O (some centres not stated) is 2.65

Looking up CC[C@H](C)[C@H](NC(=O)[C@@H](C[C@H](O)[C@H](CC(C)C)NC(=O)[C@H](Cc1c[nH]cn1)NC(=O)[C@H](Cc1ccccc1)NC(=O)[C@@H]1CCCN1C(=O)[C@H](Cc1c[nH]cn1)NC(=O)OC(C)(C)C)C(C)C)C(=O)N[C@@H](Cc1c[nH]cn1)C(=O)O (HELM PEPTIDE1{[CC(C)(C)OC(=O)[*:2]].H.P.F.H.[CC(C)C[C@H](N[*:1])[C@@H](O)C[C@H](C(=O)[*:2])C(C)C].I.H}$$$$V2.0) , I see its log10 of Ki listed as 0.70

So for COC(=O)[C@@H](NC(=O)[C@@H](NC(=O)C[C@H](O)[C@H](Cc1ccccc1)NC(=O)[C@H](C)NC(=O)[C@H](C)NC(=O)[C@@H](N)CO)C(C)C)C(C)C (HELM PEPTIDE1{S.A.A.[O=C(C[C@H](O)[C@H](Cc1ccccc1)N[*:1])[*:2]].V.V.[CO[*:1]]}$$$$V2.0) , the logged log10 of Ki turned out to be 3.08

The measured log10 of Ki associated with CC(=O)N[C@@H](CO)C(=O)N[C@@H](CCC(N)=O)C(=O)N[C@@H](CC(N)=O)C(=O)N[C@@H](Cc1ccccc1)[C@@H](O)CC(=O)N[C@H](C(=O)N[C@H](C(N)=O)C(C)C)C(C)C (HELM PEPTIDE1{[ac].S.Q.N.[O=C(C[C@H](O)[C@H](Cc1ccccc1)N[*:1])[*:2]].V.V.[am]}$$$$V2.0) reads 4.59

Memo: CC(C)[C@H](NC(=O)[C@@H](NC(=O)C(Cc1ccccc1)CP(=O)(O)[C@@H](Cc1ccccc1)NC(=O)[C@@H](NC(=O)[C@@H](NC(=O)OC(C)(C)C)C(C)C)C(C)C)C(C)C)C(N)=O (some centres not stated) (HELM PEPTIDE1{[CC(C)(C)OC(=O)[*:2]].V.V.[O=C(C(Cc1ccccc1)CP(=O)(O)[C@@H](Cc1ccccc1)N[*:1])[*:2]].V.V.[am]}$$$$V2.0) , reported log10 of Ki: -1.40
